The values you see were collected from patent US9133195B2.

Experiment: Acute toxicity test
Details: in vivo, sc, read-out: LD50
property: LD50 (mg/kg)
Output spec: scalar in mg/kg, unitless text.

State, in one line, measured LD50 of CC1C[N+]2(CCN(CCc3ccccc3)CC2)CC(C)O1 (stereo not shown) [LXM-10]
514

----------
Where a name gives a salt, the structure may show the parent alone.
property: melting point

Past entries and their recorded results:
- molecule: "CC1CC[N+]2(CC1)CCN(CCc1ccccc1)CC2 (as salt: chloride)"
  melting point: "230 °C (dec.)"
- molecule: "CC1C[N+]2(CCN(C/C=C/c3ccccc3)CC2)CC(C)O1 (stereo not drawn) (as salt: chloride)"
  melting point: "266 to 268 °C"
- molecule: "CC1C[N+]2(CCN(CCc3ccccn3)CC2)CC(C)O1 (stereo not drawn) (as salt: chloride)"
  melting point: "247 °C"

Determine from records and report melting point for COc1ccc(N2CC[N+]3(CCCC3)CC2)cc1 (as salt: bromide)
201 to 203 °C

Specify reported melting point for the molecule shown: c1ccc(N2CC[N+]3(CCCC3)CC2)cc1 (as salt: bromide)
208 to 209 °C

Give reported melting point value for C=CCN1CC[N+]2(CC1)CC(C)OC(C)C2 (stereo not drawn) (as salt: chloride)
236 °C (dec.)

----------
Experiment: Acute toxicity test
Details: in vivo, sc, read-out: LD50 95% confidence interval
property: LD50

Identify the reported LD50 for the following entry. CC1C[N+]2(CCN(CCc3ccccc3)CC2)CC(C)O1 (stereo not shown)
495 to 531 mg/kg
